Please provide measured pIC50 for the entries that follow.
Tested on: A549 cells
Test: Cellular proliferation/cytotoxicity assay (Alamar Blue), A549 cells
Conditions: read-out: Anti-proliferative/Cytotoxic activity (A549 cells); A549 cells, 72 h, Alamar Blue (Resazurin)
pIC50: −log10 of the molar value.

Input: Look up pIC50 for this compound: `c1ccc(-c2c(-c3ccc(CN4CCC(c5nnc(-c6ccc[nH]6)[nH]5)CC4)cc3)nc3scnn23)cc1`
Output: > 5.00

Input: Further, for `c1ccc(-c2c(-c3ccc(CN4CCC(c5n[nH]c(-c6ncccn6)n5)CC4)cc3)nc3ncccn23)cc1` ?
Output: < 5.00

Input: Further, for `c1ccc(-c2c(-c3ccc(CN4CCC(c5nnc(-c6ccncc6)[nH]5)CC4)cc3)nc3scnn23)cc1` ?
Output: > 5.00

Input: Further, for `c1ccc(-c2c(-c3ccc(CN4CCC(c5nnc(-c6ncccn6)[nH]5)CC4)cc3)nc3ccccn23)cc1` ?
Output: < 5.00

Input: Further, for `Cc1ccc2nc(-c3ccc(CN4CCC(c5nnc(-c6ccccn6)[nH]5)CC4)cc3)c(-c3ccccc3)n2n1` ?
Output: > 5.00

Input: Further, for `c1ccc(-c2c(-c3ccc(CN4CCC(c5cc(-c6ccccn6)[nH]n5)CC4)cc3)nc3sccn23)cc1` ?
Output: > 5.00

Input: Further, for `c1ccc(-c2c(-c3ccc(CN4CCC(c5nnc(-c6ncccn6)[nH]5)CC4)cc3)nc3sccn23)cc1` ?
Output: < 5.00

Input: Further, for `N#Cc1cccn2c(-c3ccccc3)c(-c3ccc(CN4CCC(c5n[nH]c(-c6ccc(Cl)cn6)n5)CC4)cc3)nc12` ?
Output: < 5.00

Input: Further, for `c1ccc(-c2c(-c3ccc(CN4CCC(c5nnc(-c6cccs6)[nH]5)CC4)cc3)nc3ccccn23)cc1` ?
Output: > 5.00

Input: Further, for `c1ccc(-c2c(-c3ccc(CN4CCC(c5nnc(-c6nccs6)[nH]5)CC4)cc3)nc3ccccn23)cc1` ?
Output: < 5.00

Input: Further, for `c1ccc(-c2c(-c3ccc(CN4CCC(c5nnc(-c6cccs6)[nH]5)CC4)cc3)nc3scnn23)cc1` ?
Output: > 5.00

Input: Further, for `Cc1ccc2nc(-c3ccc(CN4CCC(c5nnc(-c6cccs6)[nH]5)CC4)cc3)c(-c3ccccc3)n2n1` ?
Output: > 5.00

Input: Further, for `N#Cc1ccn2c(-c3ccccc3)c(-c3ccc(CN4CCC(c5nnc(-c6ccc[nH]6)[nH]5)CC4)cc3)nc2c1` ?
Output: > 5.00

Input: Further, for `N#Cc1ccn2c(-c3ccccc3)c(-c3ccc(CN4CCC(c5nnc(-c6cccs6)[nH]5)CC4)cc3)nc2c1` ?
Output: > 5.00
